Please go through the items and note down their inhibition.
target.system: Bifunctional epoxide hydrolase 2 (Homo sapiens) (UniProt P34913)
Sequence (P34913 whole entry): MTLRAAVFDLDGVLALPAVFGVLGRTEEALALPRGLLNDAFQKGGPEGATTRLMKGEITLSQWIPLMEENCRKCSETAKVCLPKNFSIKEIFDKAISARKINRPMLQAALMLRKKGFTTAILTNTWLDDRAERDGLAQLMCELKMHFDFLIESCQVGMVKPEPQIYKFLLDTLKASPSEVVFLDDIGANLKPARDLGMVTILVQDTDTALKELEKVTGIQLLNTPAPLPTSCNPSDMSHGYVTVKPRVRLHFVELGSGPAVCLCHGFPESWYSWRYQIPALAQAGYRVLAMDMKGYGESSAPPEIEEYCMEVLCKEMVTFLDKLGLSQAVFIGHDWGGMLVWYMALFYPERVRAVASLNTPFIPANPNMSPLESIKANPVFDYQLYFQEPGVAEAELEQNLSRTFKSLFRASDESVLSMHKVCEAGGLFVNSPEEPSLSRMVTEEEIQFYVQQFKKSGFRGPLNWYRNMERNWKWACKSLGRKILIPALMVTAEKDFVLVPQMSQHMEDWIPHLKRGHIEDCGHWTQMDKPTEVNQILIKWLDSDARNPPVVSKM
test.method.notes: Inhibition of recombinant human sEH at 50 uM using PHOME as substrate preincubated for 30 mins followed by substrate addition measured for 30 mins by fluorescence photometric method
Could you give me the number in %? Just the number is fine.

Please give the measured inhibition for this molecule: Cc1ccc(C(=O)NCc2ccc(C(=O)O)cc2)cc1C
52

Now the molecule O=C(O)c1ccc(CNC(=O)c2ccc(C(F)(F)F)c(C(F)(F)F)c2)cc1
55

Now the molecule Cc1ccccc1C(=O)NCc1ccc(C(=O)O)cc1
14

Now the molecule Cc1ccc(C(=O)NCc2ccc(C(=O)O)cc2)c(C)c1
7

Now the molecule O=C(O)c1ccc(CNC(=O)C2CCCCC2)cc1
37

Now the molecule CC(C)(C)c1ccc(C(=O)NCc2cccc(C(=O)O)c2)cc1
26

Now the molecule CC(NC(=O)c1ccc(C(C)(C)C)cc1)c1ccc(C(=O)O)cc1 (configuration not stated)
37

Now the molecule O=C(O)c1ccc(CNC(=O)c2ccccc2)cc1
16

Now the molecule CC(C)(C)c1ccc(C(=O)NCc2ccc(C(=O)O)c(Cl)c2)cc1
50

Now the molecule COc1ccc(C(=O)NCc2ccc(C(=O)O)cc2)cc1OC
26

Now the molecule Cc1ccc(C(=O)NCc2ccc(C(=O)O)cc2)cc1
24

Now the molecule Cc1cccc(C(=O)NCc2ccc(C(=O)O)cc2)c1
37

Now the molecule Cc1cc(CNC(=O)c2ccc(C(C)(C)C)cc2)ccc1C(=O)O
53

Now the molecule O=C(O)c1ccc(CNC(=O)c2ccc3ccccc3c2)cc1
45

Now the molecule O=C(O)c1ccc(CNC(=O)c2ccccc2-c2ccccc2)cc1
19

Now the molecule CN(C)c1ccc(C(=O)NCc2ccc(C(=O)O)cc2)cc1
19
